Data origin: ChEMBL document CHEMBL4342517

experiment: in vivo; conditions: Sprague-Dawley, rat, iv, 2 mg/kg
ASSAY READOUT: Tmax (min)
Express the result in min but write the number alone.

Q. # query: Tmax of entry COc1ccc(N(C)C(=O)[C@H](Cc2ccccc2)NC(=O)CN2CCN(S(=O)(=O)c3ccc(N)cc3)CC2=O)cc1
A. 4.98

* * *

assay: Half life in Sprague-Dawley rat at 20 mg/kg, po measured during 5 mins to 12 hrs by LC-MS analysis; conditions: in vivo
ASSAY READOUT: half-life (h)
Express the result in h but write the number alone.

Q. # query: half-life of entry COc1ccc(N(C)C(=O)[C@H](Cc2ccccc2)NC(=O)CN2CCN(S(=O)(=O)c3ccc(N)cc3)CC2=O)cc1
A. 1.2

* * *

test system: TZM; test: Cytotoxicity in uninfected human TZM-bl assessed as reduction in cell viability incubated for 1 day by Cyto-tox-Glo cytotoxicity assay; type: cell-based; conditions: 24 h
compounds and their reported CC50

Before answering, review these 3 worked examples.
COc1ccc(N(C)C(=O)[C@H](Cc2ccccc2)NC(=O)CNS(=O)(=O)c2cccc(N)c2)cc1	> 40.3 µM
COc1ccc(N(C)C(=O)[C@H](Cc2ccccc2)NC(=O)CN2C(=O)Nc3ccccc3S2(=O)=O)cc1	> 38.3 µM
COc1ccc(N(C)C(=O)[C@H](Cc2ccccc2)NC(=O)CN2C(=O)Nc3ccc(OC)cc3S2(=O)=O)cc1	> 36.2 µM

Q. # query: CC50 of entry COc1ccc(N(C)C(=O)[C@H](Cc2ccccc2)NC(=O)CN2CCN(S(=O)(=O)c3ccc(F)cc3)CC2=O)cc1
A. 25.7 µM

Q. Now consider COc1ccc(N(C)C(=O)[C@H](Cc2ccccc2)NC(=O)CNS(=O)(=O)c2ccccc2)cc1 .
A. > 41.5 µM

Q. Now consider COc1ccc(N(C)C(=O)[C@H](Cc2ccccc2)NC(=O)CN2CCN(S(=O)(=O)c3cccc(F)c3)CC2=O)cc1 .
A. > 34.3 µM

Q. Now consider COc1ccc(N(C)C(=O)[C@H](Cc2ccccc2)NC(=O)CN2CCN(S(=O)(=O)c3ccc(Cl)cc3)CC2=O)cc1 .
A. > 33.4 µM
